// Kd lookup, one value per entry
experimental-target: BRD4-BD2 (Homo sapiens (Human), UniProt O60885)
assay-notes: bromoKdELECT assay for binding affinity to BRD4-BD2
condition-label: 11-point 3-fold dilution

{"compound": "CCS(=O)(=O)c1ccc(Oc2cccc(CCC3CCN(c4ccc(C(=O)N[C@H]5CC[C@H](Oc6ccc(C#N)c(Cl)c6)CC5)nn4)CC3)c2F)c(-c2cn(C)c(=O)c3[nH]ccc23)c1 [I-51]", "Kd": "50 to 500 nM"}
{"compound": "CCS(=O)(=O)c1ccc(Oc2ccc(N3CC4(CCN(c5ccc(C(=O)NC6CCC(Oc7ccc(C#N)c(Cl)c7)CC6)nn5)CC4)C3)cc2)c(-c2cn(C)c(=O)c3[nH]ccc23)c1 (stereo not drawn) [I-90]", "Kd": "50 to 500 nM"}
{"compound": "Cn1cc(-c2cc(C(C)(C)O)ccc2Oc2cc(F)c(CCOC3CCN(c4ccc(C(=O)N[C@H]5CC[C@H](Oc6ccc(C#N)c(Cl)c6)CC5)nn4)CC3)c(F)c2)c2cc[nH]c2c1=O [I-110]", "Kd": "> 2500 nM"}

###

experimental-target: BRD4-BD2 (Homo sapiens (Human))
assay-notes: bromoKdELECT assay for binding affinity to BRD4-BD2
condition-label: 11-point 3-fold dilution
pKd: −log10 of the molar value.

{"smiles-data": "CCS(=O)(=O)Nc1ccc(Oc2cccc(OCCOCCOCCOCCOCCOC3CCN(c4ccc(C(=O)N[C@H]5CC[C@H](Oc6ccc(C#N)c(Cl)c6)CC5)nn4)CC3)c2)c(-c2cn(C)c(=O)c3[nH]ccc23)c1", "pKd": "> 7.30"}
{"smiles-data": "CCS(=O)(=O)c1ccc(Oc2ccc(CCC3CCN(c4ccc(C(=O)N[C@H]5CC[C@H](Oc6ccc(C#N)c(Cl)c6)CC5)nn4)CC3)nc2)c(-c2cn(C)c(=O)c3[nH]ccc23)c1", "pKd": "6.30 to 7.30"}
{"smiles-data": "CCS(=O)(=O)c1ccc(Oc2ccc(CN3CC4(C3)CN(c3ccc(C(=O)N[C@H]5CC[C@H](Oc6ccc(C#N)c(Cl)c6)CC5)nn3)C4)cc2)c(-c2cn(C)c(=O)c3[nH]ccc23)c1", "pKd": "> 7.30"}
{"smiles-data": "Cn1cc(-c2cc(C(C)(C)O)ccc2Oc2ccc(CCC3CCN(c4ccc(C(=O)N[C@H]5CC[C@H](Oc6ccc(C#N)c(Cl)c6)CC5)nn4)CC3)cc2)c2cc[nH]c2c1=O", "pKd": "< 5.60"}
{"smiles-data": "CCS(=O)(=O)Cc1ccc(Oc2cccc(CCCOC3CCN(c4ccc(C(=O)N[C@H]5CC[C@H](Oc6ccc(C#N)c(Cl)c6)CC5)nn4)CC3)c2F)c(-c2cn(C)c(=O)c3[nH]ccc23)c1", "pKd": "6.30 to 7.30"}

###

Test system: T47D cells
assay-notes: Cellular growth inhibition assay for T47D cells, CellTiter-Glo
Assay type: cell-based, human
condition-label: Homo sapiens, 72 hours treatment, CellTiter-Glo 2.0
Recorded GI50 by entry

{"compound": "Cn1cc(-c2cc(C(C)(C)O)ccc2CN2CC(CC3CCN(c4ccc(C(=O)NC5CCC(Oc6ccc(C#N)c(Cl)c6)CC5)nn4)CC3)C2)c2cc[nH]c2c1=O (stereo not drawn) [I-248]", "GI50": "500 to 1500 nM"}
{"compound": "Cn1cc(-c2cc(S(C)(=O)=O)ccc2OC(CCCCN2CCN(c3ccc(C(=O)NC4CCC(Oc5ccc(C#N)c(Cl)c5)CC4)nn3)CC2)C2CC2)c2cc[nH]c2c1=O (stereo not drawn) [I-244]", "GI50": "< 500 nM"}
{"compound": "Cn1cc(-c2cc(C(C)(C)O)ccc2Oc2ccc(CC3CC4(CCN(c5ccc(C(=O)N[C@H]6CC[C@H](Oc7ccc(C#N)c(Cl)c7)CC6)nn5)CC4)C3)cc2)c2cc[nH]c2c1=O [I-130]", "GI50": "< 500 nM"}

###

Measured GI50, listed per entry.
Tested on: T47D cells
assay-notes: Cellular growth inhibition assay for T47D cells, CellTiter-Glo
Assay type: cell-based, human
condition-label: 72 hours treatment, CellTiter-Glo 2.0

{"smiles-data": "CCS(=O)(=O)c1ccc(Oc2ccc(CCC3CCN(c4ccc(C(=O)N[C@H]5CC[C@H](Oc6ccc(C#N)c(Cl)c6)CC5)nn4)CC3)c(OC)c2)c(-c2cn(C)c(=O)c3[nH]ccc23)c1", "GI50": "< 500 nM"}
{"smiles-data": "Cn1cc(-c2cc(S(=O)(=O)CCCCCN3CCN(c4ccc(C(=O)N[C@H]5CC[C@H](Oc6ccc(C#N)c(Cl)c6)CC5)nn4)CC3)ccc2Oc2ccc(F)cc2F)c2cc[nH]c2c1=O", "GI50": "500 to 1500 nM"}
{"smiles-data": "CC(C)N(C1CCN(c2ccc(C(=O)N[C@H]3CC[C@H](Oc4ccc(C#N)c(Cl)c4)CC3)nn2)CC1)C1CN(c2cccc(Oc3ccc(C(C)(C)O)cc3-c3cn(C)c(=O)c4[nH]ccc34)c2F)C1", "GI50": "500 to 1500 nM"}
{"smiles-data": "CCS(=O)(=O)c1ccc(Oc2ccc(CCC3CCN(c4ccc(C(=O)N[C@H]5CC[C@H](Oc6ccc(C#N)c(Cl)c6)CC5)nn4)CC3)c(Cl)c2)c(-c2cn(C)c(=O)c3[nH]ccc23)c1", "GI50": "< 500 nM"}
{"smiles-data": "CCS(=O)(=O)c1ccc(Oc2ccc(N3CC(C4CCN(c5ccc(C(=O)N[C@H]6CC[C@H](Oc7ccc(C#N)c(Cl)c7)CC6)nn5)CC4)C3)cc2)c(-c2cn(C)c(=O)c3[nH]ccc23)c1", "GI50": "< 500 nM"}
{"smiles-data": "CCS(=O)(=O)c1ccc(Oc2ccc(CCC3CCN(c4ccc(C(=O)N[C@H]5CC[C@H](Oc6ccc(C#N)c(Cl)c6)CC5)nn4)CC3)cc2)c(-c2cn(C)c(=O)c3[nH]ccc23)c1", "GI50": "< 500 nM"}
{"smiles-data": "CCS(=O)(=O)c1ccc(Oc2ccc(OCC3CCN(c4ccc(C(=O)N[C@H]5CC[C@H](Oc6ccc(C#N)c(Cl)c6)CC5)nn4)CC3)cc2F)c(-c2cn(C)c(=O)c3[nH]ccc23)c1", "GI50": "< 500 nM"}
{"smiles-data": "CCS(=O)(=O)Nc1ccc(Oc2ccc(CCC3CCN(c4ccc(C(=O)N[C@H]5CC[C@H](Oc6ccc(C#N)c(Cl)c6)CC5)nn4)CC3)cc2)c(-c2cn(C)c(=O)c3[nH]ccc23)c1", "GI50": "< 500 nM"}
{"smiles-data": "Cn1cc(-c2cc(C(C)(C)O)ccc2Oc2ccc(N3CCN(c4ccc(C(=O)N[C@H]5CC[C@H](Oc6ccc(C#N)c(Cl)c6)CC5)nn4)CC3)cc2)c2cc[nH]c2c1=O", "GI50": "< 500 nM"}
{"smiles-data": "CCS(=O)(=O)c1ccc(Oc2ccc(CCC3CCN(c4ccc(C(=O)N[C@H]5CC[C@H](Oc6ccc(C#N)c(Cl)c6)CC5)nn4)CC3)nn2)c(-c2cn(C)c(=O)c3[nH]ccc23)c1", "GI50": "< 500 nM"}

###

Test system: T-Rex 293 cell line SC cells having increased expression of progesterone receptor isoform B protein
assay-notes: Cellular growth inhibition, T-Rex 293 SC cells with increased progesterone receptor isoform B expression (doxycycline), CellTiter-Glo
Type: cell-based
condition-label: progesterone receptor isoform B induced with 10 ng/mL doxycycline, 72 hours

{"smiles-data": "Cn1cc(-c2cc(C(C)(C)O)ccc2Oc2ccc(OCCN3CCN(c4ccc(C(=O)N[C@H]5CC[C@H](Oc6ccc(C#N)c(Cl)c6)CC5)nn4)CC3)cc2)c2cc[nH]c2c1=O", "GI50": "< 500 nM"}
{"smiles-data": "CCS(=O)(=O)Nc1ccc(Oc2cccc(OCCOCCOCCOC3CCN(c4ccc(C(=O)N[C@H]5CC[C@H](Oc6ccc(C#N)c(Cl)c6)CC5)nn4)CC3)c2)c(-c2cn(C)c(=O)c3[nH]ccc23)c1", "GI50": "< 500 nM"}
{"smiles-data": "CN(c1ccc(Oc2ccc(C(C)(C)O)cc2-c2cn(C)c(=O)c3[nH]ccc23)cc1)C1CN(c2ccc(C(=O)N[C@H]3CC[C@H](Oc4ccc(C#N)c(Cl)c4)CC3)nn2)C1", "GI50": "< 500 nM"}

###

experimental-target: androgen receptor (Homo sapiens, UniProt P10275)
Sequence (P10275 whole entry, looked up): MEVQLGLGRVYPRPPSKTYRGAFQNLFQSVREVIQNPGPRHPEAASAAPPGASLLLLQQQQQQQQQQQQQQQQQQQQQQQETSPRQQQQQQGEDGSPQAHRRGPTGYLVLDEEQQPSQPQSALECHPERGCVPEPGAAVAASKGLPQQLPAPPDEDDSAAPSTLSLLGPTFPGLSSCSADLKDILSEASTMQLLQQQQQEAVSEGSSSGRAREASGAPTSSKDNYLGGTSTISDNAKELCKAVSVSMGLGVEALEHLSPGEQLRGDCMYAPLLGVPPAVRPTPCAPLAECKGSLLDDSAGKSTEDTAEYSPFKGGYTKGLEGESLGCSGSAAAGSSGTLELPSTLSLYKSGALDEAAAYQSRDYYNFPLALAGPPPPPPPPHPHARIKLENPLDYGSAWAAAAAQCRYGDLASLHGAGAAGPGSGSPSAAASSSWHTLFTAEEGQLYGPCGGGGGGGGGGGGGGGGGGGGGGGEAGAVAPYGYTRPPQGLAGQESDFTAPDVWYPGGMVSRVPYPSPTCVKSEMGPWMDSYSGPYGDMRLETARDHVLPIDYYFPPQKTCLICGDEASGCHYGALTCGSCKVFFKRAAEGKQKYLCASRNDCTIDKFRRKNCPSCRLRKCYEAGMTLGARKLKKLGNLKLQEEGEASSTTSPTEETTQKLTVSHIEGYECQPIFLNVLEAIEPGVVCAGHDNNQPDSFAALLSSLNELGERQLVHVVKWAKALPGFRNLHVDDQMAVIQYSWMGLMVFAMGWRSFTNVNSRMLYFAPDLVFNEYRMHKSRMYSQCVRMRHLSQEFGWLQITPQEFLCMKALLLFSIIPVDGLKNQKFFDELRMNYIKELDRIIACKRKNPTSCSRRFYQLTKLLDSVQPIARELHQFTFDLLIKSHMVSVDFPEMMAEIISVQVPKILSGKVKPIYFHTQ
pKd: −log10 of the molar value.
Below is a list of entries, each paired with its recorded pKd value.

{"compound": "CCS(=O)(=O)Nc1ccc(Oc2cccc(OCCOC3CCN(c4ccc(C(=O)N[C@H]5CC[C@H](Oc6ccc(C#N)c(Cl)c6)CC5)cc4)CC3)c2)c(-c2cn(C)c(=O)c3[nH]ccc23)c1 [I-6]", "experimental-target": "androgen receptor (Homo sapiens, UniProt P10275)", "pKd": "5.60 to 6.30"}
{"compound": "Cn1cc(-c2cc(C(C)(C)O)ccc2Oc2ccc(C3CN(c4ccc(C(=O)N[C@H]5CC[C@H](Oc6ccc(C#N)c(Cl)c6)CC5)nn4)C3)cc2)c2cc[nH]c2c1=O [I-104]", "experimental-target": "androgen receptor (Homo sapiens, UniProt P10275)", "pKd": "> 7.30"}
{"compound": "CCS(=O)(=O)Nc1ccc(Oc2cccc(OCCOC3CCN(c4ccc(C(=O)N[C@H]5CC[C@H](Oc6ccc(C#N)c(Cl)c6)CC5)nc4)CC3)c2)c(-c2cn(C)c(=O)c3[nH]ccc23)c1 [I-9]", "experimental-target": "androgen receptor (Homo sapiens, UniProt P10275)", "pKd": "5.60 to 6.30"}
{"compound": "Cn1cc(-c2cc(C(C)(C)O)ccc2Oc2ccc(CCC3CCN(c4cnc(C(=O)N[C@H]5CC[C@H](Oc6ccc(C#N)c(Cl)c6)CC5)cn4)CC3)cc2)c2cc[nH]c2c1=O [I-119]", "experimental-target": "androgen receptor (Homo sapiens, UniProt P10275)", "pKd": "5.60 to 6.30"}
{"compound": "CCS(=O)(=O)Nc1ccc(Oc2cccc(OCCOC3CCN(c4cnc(C(=O)N[C@H]5CC[C@H](Oc6ccc(C#N)c(Cl)c6)CC5)nc4)CC3)c2)c(-c2cn(C)c(=O)c3[nH]ccc23)c1 [I-10]", "experimental-target": "androgen receptor (Homo sapiens, UniProt P10275)", "pKd": "6.30 to 7.30"}
